Target: Cytochrome P450 2C19 (Homo sapiens) (UniProt P33261)
Sequence (P33261 whole entry, looked up): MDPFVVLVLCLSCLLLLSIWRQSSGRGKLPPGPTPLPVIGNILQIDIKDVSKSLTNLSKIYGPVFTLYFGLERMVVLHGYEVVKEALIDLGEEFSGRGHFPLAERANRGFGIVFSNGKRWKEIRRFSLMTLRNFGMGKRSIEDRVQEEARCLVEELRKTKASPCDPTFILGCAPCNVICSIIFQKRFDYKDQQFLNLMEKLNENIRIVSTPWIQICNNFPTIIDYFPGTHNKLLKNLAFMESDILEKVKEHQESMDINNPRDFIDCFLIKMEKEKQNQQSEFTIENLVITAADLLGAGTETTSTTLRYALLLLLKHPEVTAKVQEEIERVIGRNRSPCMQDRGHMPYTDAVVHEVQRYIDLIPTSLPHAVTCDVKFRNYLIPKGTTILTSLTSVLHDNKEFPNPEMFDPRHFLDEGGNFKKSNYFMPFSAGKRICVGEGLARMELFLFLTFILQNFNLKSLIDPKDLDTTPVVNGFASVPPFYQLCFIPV
Test: blockers of cytochrome P450 2C19 activity – biochemical, luminescence, ADME assay, primary screen (AID 778);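 also: plate controls were negative control wells for no effect and 2.5 mM tranylcypromine positive control for full effect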
Settings: CYP2C19 Supersomes, luciferin-H EGE luminescence, 30 min; at 5 µM; active compounds read high
Hit rate of the full screen: of about 96,000 compounds, about 20,000 (21%) were called active. A selection follows.
measurement label: inhibition (%)
Provide the reading as a plain figure in %.

Entry C#CCNc1nc(C(C)C)nc2c1nnn2Cc1ccccc1F has what inhibition?
37.3

Param item = Cc1cc(C)nc(SCc2nnc(SCC(=O)OC3CCCCC3)o2)n1 ; retrieve measured inhibition.
32.2

Would you kindly share the measured inhibition for NC(=O)C1CCN(C(=O)c2ccc(-c3ccccc3)cc2)CC1 ?
9.6

Dear colleague, I am looking for the recorded inhibition of the following compound: Cc1ccccc1-n1nc(C)c2cc(C(=O)NC3CC3)sc21
61.4

Query: inhibition; subject: CCn1c(SCC(=O)c2ccc3ccccc3c2)nnc1-c1cccs1
15.7

Returns the measured inhibition for the input compound. Input: CCN1CCc2c(C#N)c(NCc3ccccc3)nc(NCCO)c2C1
9

Field request: inhibition | item: Cc1nn(-c2ccccc2)c2sc(C(=O)N(Cc3ccco3)C(C)C(=O)NC(C)(C)C)cc12 (centres undefined)
33.9

----------
Molecular target: Cytochrome P450 2C19 (Homo sapiens)
Assay: blockers of cytochrome P450 2C19 activity – biochemical, luminescence, ADME assay, primary screen (AID 778);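 also: plate controls were negative control wells for no effect and 2.5 mM tranylcypromine positive control for full effect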
Conditions: CYP2C19 Supersomes, luciferin-H EGE luminescence, 30 min; at 5 µM; active compounds read high
Screen size: about 96,000 compounds; about 20,000 (21%) were called active. Only a sample is shown.
measurement label: inhibition (%)
Reply with just the number (in %).

For orientation, consider the following solved cases.
                                   molecule  reported_value
0  CCn1c(SCC(=O)Nc2ccc(OC)c(OC)c2)nnc1-c1c[nH]c2ccccc12            42.9
1        CC(C)=CC(=O)Nc1nnc(-c2ccc(F)cc2)s1             4.7
2  C=CCn1c(SCC(=O)/C(C#N)=C(\C)N)nc2sc(C)c(C)c2c1=O             6.6

inhibition for N=c1c2c(-c3ccccc3)c(-c3ccccc3)oc2ncn1Cc1ccco1 ?
19.1

Item under review: O=c1c2ccccc2oc2nc(C3CCCCC3)n(Cc3ccco3)c(=O)c12 . Reported inhibition?
50.7

What inhibition value was documented for this molecule, CCC(C)Sc1nnc(-c2c[nH]c3ccccc23)n1CCOC (configuration not stated) ?
15.6

Which inhibition reading was recorded for the molecule COc1ccc(C(=O)n2nc(-c3ccc(Cl)cc3)nc2N)cc1OC ?
1.7

Please look up its inhibition: CCOC(=O)CSc1nnc(CNC(=O)c2cccs2)n1-c1ccccc1
-5.7

Bench note: what inhibition did Cc1c2cnn(-c3ccccc3)c(=O)c2c(C)n1CCCC(=O)N1CCN(C)CC1 show?
-16

What measured inhibition goes with O=C1CC(c2ccccc2)CC(O)=C1C=NCCN1CCOCC1 (configuration not stated) ?
0.2

Any idea what inhibition was measured for Cn1c(C(=O)NCCc2ccsc2)cc2c(=O)n(C)c3ccccc3c21 ?
11.7

----------
Molecular target: Cytochrome P450 2C19 (Homo sapiens)
Assay: blockers of cytochrome P450 2C19 activity – biochemical, luminescence, ADME assay, primary screen (AID 778);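 also: plate controls were negative control wells for no effect and 2.5 mM tranylcypromine positive control for full effect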
Conditions: CYP2C19 Supersomes, luciferin-H EGE luminescence, 30 min; at 5 µM; active compounds read high
The campaign covered roughly 96,000 compounds. About 20,000 (21%) were called active. Not all results are given here.
# binning rule on inhibition: class A = under 20%, class B = from 20% up to 70%, class C = 70% and over

These recorded examples may help you get a feel for the data.
>>> df
                                   compound  category
0  CN(C)Cc1ccccc1C1(O)c2ccccc2CSc2ccccc21 (stereo not given)   class B
1  O=C(CN1C(=O)c2ccccc2S1(=O)=O)N1CCc2ccccc21   class A
2       Cc1ccc(C2=CSC3=NS(=O)(=O)CCN23)cc1C   class A
3  O=C(Nc1ccc(Br)cc1)C1CCC(=O)N1Cc1ccccc1Cl (stereo not given)   class C

Which category fits this record: COc1cc(OC)cc(C(=O)Nc2ccc(-c3nc4ccccc4o3)c(O)c2)c1
class B

Form field 'band' for O=C(NCc1cn2ccsc2n1)Nc1ccc(Cl)cc1
class B

Which category does the recorded inhibition put Cc1cc(C)nc(SC(C)C(=O)N/N=C/c2cccs2)n1 (stereo not given) in?
class B

Could you place COc1ccc(N(CC(=O)N/N=C/c2cccs2)S(=O)(=O)c2ccc(OC)c(OC)c2)cc1 in its proper category? Many thanks.
class C

Lab note: which band did Cc1noc(/C=C/c2ccco2)c1S(=O)(=O)N1CCC(C(=O)N2CCc3ccccc32)CC1 land in?
class B
